# Tested on: OV90
# PROCEDURE SUMMARY: Primary qHTS to identify gynecologic anti-cancer compounds using libraries of approved drugs and bioactive compounds (AID 1345084); further: on the % scale 0 is the no-effect control and ±100 the full control effect; nearly all actives have a fitted effect of over 55% in size
# MEASUREMENT SETUP: Gynecologic cancer cell panel viability, ATPlite luminescence, 48 h; series mostly up to 57.5 µM
Results filed as inconclusive are left out. Activity calls are given as the source filed them. The call rests on the fitted dose curve; in most records, active means well fitted cell-killing curve with a large enough effect; inconclusive means small, poorly fitted or top-dose-only effect, or effect the other way; inactive means flat fitted curve, though single readings scatter.
MEASUREMENT KIND: activity change, negative = cytotoxicity

Guide cases for activity change, negative = cytotoxicity, answers given:
COMPOUND	activity change, negative = cytotoxicity
CCCC(=O)NCCc1csc(-c2ccc(Cl)cc2)n1	inactive
COc1cc2c(cc1O)CC[C@H]1[C@@H]2CC[C@]2(C)[C@H](O)CC[C@@H]12	inactive
Cn1ncnc1COc1nn2c(-c3cc(F)ccc3F)nnc2cc1C(C)(C)C	inactive
CC(=O)N[C@@H](CCCCN)C(=O)N(C)[C@@H](CC(C)C)C(=O)N[C@H](C(=O)N(C)[C@@H](Cc1ccccc1)C(=O)N[C@H](Cc1ccccc1)C(N)=O)C(C)C	-1.74% [at 6.55 µM] (inactive)
NC(=O)c1csc(C2OC(CO)C(O)C2O)n1 (stereo not given)	inactive
CC1CCC2C(C)(C)[C@@H](O)CC[C@]2(C)C12Cc1c(O)cc3c(c1O2)CN(C(CCC(=O)O)C(=O)O)C3=O (stereo not given in full)	inactive

Item: CC1(C)CC[C@]2(C(=O)O[C@@H]3O[C@H](CO[C@@H]4O[C@H](CO)[C@@H](O)[C@H](O)[C@H]4O[C@@H]4O[C@H](CO)[C@H](O)[C@H](O)[C@H]4O)[C@@H](O)[C@H](O[C@@H]4O[C@H](CO)[C@@H](O)[C@H](O)[C@H]4O)[C@H]3O)CC[C@]3(C)C(=CCC4[C@@]5(C)CC[C@H](O[C@@H]6OC[C@@H](O)[C@H](O)[C@H]6O)[C@@](C)(C(=O)O)C5CC[C@]43C)[C@@H]2C1 (stereo not given in full) | activity change, negative = cytotoxicity: 3.06% [at 6.55 µM] (inactive)

# activity change, negative = cytotoxicity of `COc1nc2sc(C(=O)NC3CC3)c(N)c2c(C)c1Cl` = inactive

Input C[C@H]1O[C@@H](O[C@H]2CC[C@@]3(C)C(CC[C@]4(C)C3CC=C3C5CC(C)(C)CC[C@]5(C(=O)O)CC[C@]34C(=O)O)C2(C)C)[C@H](O)[C@@H](O)[C@@H]1O (stereo not given in full) . Output activity change, negative = cytotoxicity: inactive

Entry CC1(O)CC(O)C2(O)C=COC(O[C@@H]3O[C@H](CO)[C@@H](O)[C@H](O)[C@H]3O)C12 (stereo not given in full) , activity change, negative = cytotoxicity reported as inactive

Lab note: COc1ccc(CC2NCCc3c2[nH]c2ccc(C)cc32)cc1OC (stereo not given) gave activity change, negative = cytotoxicity of inactive

###

# PROCEDURE SUMMARY: Primary qHTS for inhibitors of nuclear receptor binding SET domain protein 2 (NSD2) in an RCH-ACV wild type WT cells (2C) (AID 1645877); further: nearly all actives have a fitted effect of over 70% in size; further: potency means the concentration at half of the fitted maximal effect
# MEASUREMENT SETUP: RCH-ACV (leukaemia line) NSD2 WT (2C) viability, CellTiter-Glo, 72 h; series mostly up to 44.9 µM
Inconclusive results are not listed. Activity calls are given as the source filed them. Calls come from the whole dose curve; as a rule, active = well fitted inhibition curve with a large enough effect; inconclusive = small, poorly fitted or top-dose-only effect; inactive = no such curve, though single readings can be large or run the other way.
MEASUREMENT KIND: Potency

Reference set, count: 10
COMPOUND	Potency
CO[C@H]1O[C@@H]2O[C@]3(C)CC[C@H]4[C@H](C)CC[C@@H]([C@H]1C)[C@@]24OO3	7280 nM (active)
CC(C)=CC/C=C(\C)[C@H]1CC[C@]2(C)[C@@H]1[C@H](O)C[C@@H]1[C@@]3(C)CC[C@H](O)C(C)(C)[C@@H]3[C@@H](O[C@@H]3O[C@H](CO)[C@@H](O)[C@H](O)[C@H]3O)C[C@]12C	inactive
CC[C@H](C)[C@H](NC(=O)[C@H]([C@@H](C)CC)N(C)C(C)=O)C(=O)N[C@H](C(=O)N[C@@H](CC(C)C)C(=O)[C@@]1(C)CO1)[C@@H](C)O	7.3 nM (active)
COc1ccc(/C=C/C(=O)O[C@@H]2[C@@H](O)[C@H](C)O[C@@H](O[C@H]3[C@@H]4C=CO[C@@H](O[C@H]5O[C@@H](CO)[C@H](O)[C@@H](O)[C@@H]5O)[C@@H]4[C@@]4(CO)O[C@@H]34)[C@@H]2OC(C)=O)cc1	inactive
CC1=C2C[C@H]3O[C@@]3(C)CCC3O[C@@]3(C)C[C@@]2(O)OC1=O (some centres undefined)	inactive
CC(C)=CCC[C@](C)(O[C@@H]1O[C@H](CO)[C@@H](O)[C@H](O)[C@H]1O)[C@H]1CC[C@]2(C)[C@@H]1[C@H](O)CC1[C@@]3(C)CC[C@H](O)C(C)(C)C3[C@@H](O[C@@H]3O[C@H](CO)[C@@H](O)[C@H](O)[C@H]3O)C[C@]12C (some centres undefined)	inactive
C=C1CCC[C@]2(C)CC[C@@H](C(=C)C(=O)O)[C@H](O)[C@@H]12	inactive
CC(C)=CCC[C@](C)(O)[C@H]1CC[C@]2(C)[C@@H]1[C@H](O)CC1[C@@]3(C)CC[C@H](O)C(C)(C)C3[C@@H](O[C@@H]3O[C@H](CO)[C@@H](O)[C@H](O)[C@H]3O[C@@H]3OC[C@@H](O)[C@H](O)[C@H]3O)C[C@]12C (some centres undefined)	inactive
COc1cc2c(cc1OC)[C@@H]1[C@H](O)[C@@H](OC)C=C3CCN(C2)[C@H]31	4500 nM (active)
COc1c(C)c(OCC(O)C(C)(C)O)cc2c1COC2=O (centres undefined)	inactive

Form field Potency, entry CC(=O)OC1CC2(C)C3=CCC4(C)C5C(O)C(O)C(C(C)C)C5(C)CCC4(C)C3CCC2C(C)(C)C1OC1OC(CO)C(O)C(O)C1O (centres undefined) : inactive

So for `CC(C)CCC[C@@H](C)[C@H]1CC[C@H]2[C@@H]3CC(=O)[C@H]4C[C@@H](O)CC[C@]4(C)[C@H]3CC[C@]12C` , the logged Potency turned out to be inactive

###

# System: NIH3T3
# PROCEDURE SUMMARY: Cytotoxic Profiling of Annotated Libraries Using Quantitative High-Throughput Screening (AID 1296008); further: on the % scale 0 is the no-effect control and ±100 the full control effect; nearly all actives have a fitted effect of over 60% in size
# MEASUREMENT SETUP: Five cell lines viability, CellTiter-Glo ATP luminescence, 48-72 h; stronger effect = lower value
Records with an inconclusive call do not appear.
MEASUREMENT KIND: max response (%)
Write the answer as a number in %, unit excluded.

# count of solved cases: 2
MOLECULE	TARGET OF ASSAY	UNIT DESCRIPTOR	max response
O=C(Nc1ccc(-c2ccncc2)cc1)N[C@H](CO)c1ccccc1	NIH3T3	%	-5.95
CCN1CCN(Cc2ccc(NC(=O)Nc3ccc(Oc4cc(NC)ncn4)cc3)cc2C(F)(F)F)CC1	NIH3T3	%	-75.2

Next, consider the following molecule.
The molecule CC(C)=CCC[C@](C)(O[C@@H]1O[C@H](CO)[C@@H](O)[C@H](O)[C@H]1O)[C@H]1CC[C@]2(C)[C@@H]1[C@H](O)CC1[C@@]3(C)CC[C@H](O)C(C)(C)C3[C@@H](O[C@@H]3O[C@H](CO)[C@@H](O)[C@H](O)[C@H]3O)C[C@]12C (stereo partly drawn) , when measured on NIH3T3, yielded max response of -17.5

###

# TARGET OF ASSAY: Cytochrome P450 2C9 (Homo sapiens) (UniProt P11712)
# Sequence (P11712 whole entry, looked up): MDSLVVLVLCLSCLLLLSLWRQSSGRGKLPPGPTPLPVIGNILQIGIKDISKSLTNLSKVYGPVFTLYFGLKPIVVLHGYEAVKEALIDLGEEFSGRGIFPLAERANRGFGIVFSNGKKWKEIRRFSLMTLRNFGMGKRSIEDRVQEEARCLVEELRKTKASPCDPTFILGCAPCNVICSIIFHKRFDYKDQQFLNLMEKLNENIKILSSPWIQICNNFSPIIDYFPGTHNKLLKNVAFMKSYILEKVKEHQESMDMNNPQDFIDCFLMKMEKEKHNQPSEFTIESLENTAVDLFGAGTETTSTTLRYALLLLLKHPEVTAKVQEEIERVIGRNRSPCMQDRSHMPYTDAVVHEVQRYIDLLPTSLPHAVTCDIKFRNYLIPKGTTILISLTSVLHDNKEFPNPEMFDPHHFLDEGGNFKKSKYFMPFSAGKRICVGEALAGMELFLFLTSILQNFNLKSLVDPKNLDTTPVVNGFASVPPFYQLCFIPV
# PROCEDURE SUMMARY: Cytochrome P450 family 2 subfamily C member 9 (CYP2C9) small molecule antagonists: luciferase biochemical (cell-free) qHTS assay (AID 1645842); further: nearly all actives have a fitted effect of over 55% in size
# MEASUREMENT SETUP: P450-Glo CYP2C9 enzyme assay, luciferin luminescence; series mostly up to 57.4 µM
Results filed as inconclusive are left out. The source made the active and inactive calls. Calls come from the whole dose curve; as a rule, active = well fitted inhibition curve with a large enough effect in the repeat runs; inconclusive = weak or mixed curves; inactive = no such curve, though single readings can be large or run the other way.
Respond only with the outcome that fits, drawn from active, inactive

> print(dat)
                                molecule                           target.of.assay     cat
1  O=C(NCc1cccc(O)c1)Nc1nc(-c2ccncc2)cs1  Cytochrome P450 2C9 (Homo sapiens) (UniProt P11712)  active

Input line: What did this assay record as the result for `C=CC(=O)Nc1cc(Nc2nccc(-c3c[nH]c4ccccc34)n2)c(OC)cc1N(C)CCN(C)C` ?
Output line: active

Input line: For COc1ccc2cc(C(C)C(=O)Oc3ccc(C(N)=S)cc3)ccc2c1 (stereo not given) , what call appears in the results of this test?
Output line: active

Input line: Assay outcome for `CCOC(=O)c1sc(NC(=O)[C@H](C(C)C)n2c(=O)[nH]c3ccccc3c2=O)nc1C` : what was it?
Output line: active

Input line: Returns: the outcome recorded for O=C1CCC(c2ccccc2)(C2CCN(Cc3ccc(I)cc3)CC2)C(=O)N1 (stereo not given) in this assay.
Output line: inactive
